- Study target: human recombinant KAT-II (Homo sapiens (Human), UniProt Q8N5Z0)
- Sequence (Q8N5Z0 30-425): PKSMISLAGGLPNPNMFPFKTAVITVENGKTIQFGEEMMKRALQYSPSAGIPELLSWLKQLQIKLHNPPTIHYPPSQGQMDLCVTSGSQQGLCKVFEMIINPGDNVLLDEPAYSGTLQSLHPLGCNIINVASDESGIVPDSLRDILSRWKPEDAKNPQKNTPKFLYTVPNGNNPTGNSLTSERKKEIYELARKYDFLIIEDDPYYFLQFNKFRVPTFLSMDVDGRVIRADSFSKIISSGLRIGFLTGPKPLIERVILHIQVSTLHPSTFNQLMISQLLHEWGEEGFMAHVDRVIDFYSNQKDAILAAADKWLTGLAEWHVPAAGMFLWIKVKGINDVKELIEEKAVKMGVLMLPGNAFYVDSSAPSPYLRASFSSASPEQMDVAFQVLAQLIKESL
- Protocol: KAT-II inhibitory test
- Applied conditions: 3.0 μmol/L kynurenine, 37° C., 1 hr, pH 8.0; kynurenic acid quantified by HPLC
Listing of entries alongside the reported IC50.
Quantity measured: IC50 (nM)

{"columns": ["Compound", "Study target", "Quantity measured", "Experimental value"],
 "data": [
  ["O=C(NCc1ccccc1)[C@H]1CCCN1c1nn2c(=O)cc(C(F)(F)F)nc2s1", "human recombinant KAT-II (Homo sapiens (Human), UniProt Q8N5Z0)", "IC50", 78],
  ["Cn1c(N2CCCCC2)nc2sc(N3CCC[C@@H]3C(=O)NCc3ccccc3)nc2c1=O", "human recombinant KAT-II (Homo sapiens (Human), UniProt Q8N5Z0)", "IC50", 4.4],
  ["CC(C)Nc1nc2sc(N3CCC[C@@H]3C(=O)NCc3ccccc3)nc2c(=O)n1C", "human recombinant KAT-II (Homo sapiens (Human), UniProt Q8N5Z0)", "IC50", 11],
  ["Cc1nc2sc([C@H]3CCCN3C(=O)Oc3ccccc3)nc2c(=O)n1C1CCOCC1", "human recombinant KAT-II (Homo sapiens (Human), UniProt Q8N5Z0)", "IC50", 400],
  ["O=C(NCc1ccccc1)[C@H]1CCCN1c1nc2c(=O)[nH]c(OCC(F)(F)F)nc2s1", "human recombinant KAT-II (Homo sapiens (Human), UniProt Q8N5Z0)", "IC50", 1100],
  ["CCc1nc2sc(N3CCC[C@@H]3C(=O)NCc3ccc(Cl)cc3Cl)nn2c(=O)c1F", "human recombinant KAT-II (Homo sapiens (Human), UniProt Q8N5Z0)", "IC50", 29],
  ["CC1(Cn2c(C(F)(F)F)nc3sc(N4CCC[C@@H]4C(=O)NCc4ccccc4)nc3c2=O)COC1", "human recombinant KAT-II (Homo sapiens (Human), UniProt Q8N5Z0)", "IC50", 72],
  ["CC(C)c1cc(=O)n2nc(N3CCC[C@@H]3C(=O)NCc3ccccc3)ccc2n1", "human recombinant KAT-II (Homo sapiens (Human), UniProt Q8N5Z0)", "IC50", 550]
]}

====

Listing of entries alongside the reported IC50.
- Study target: human recombinant KAT-II (Homo sapiens (Human), UniProt Q8N5Z0)
- Protocol: KAT-II inhibitory test
- Applied conditions: 3.0 μmol/L kynurenine, 37° C., 1 hr, pH 8.0; kynurenic acid quantified by HPLC

{"columns": ["Compound", "IC50 [nM]"],
 "data": [
  ["CC(C)c1nc2sc(N(C)[C@H](C)C(=O)NCc3ccccc3)nc2c(=O)[nH]1", 15],
  ["CN(C)c1nc2sc(N3CCC[C@@H]3C(=O)NCc3ccccc3)nc2c(=O)n1C", 5.6],
  ["C[C@@H]1CN(C)Cc2nc3sc(N4CCC[C@@H]4C(=O)NCc4ccccc4)nc3c(=O)n21", 140],
  ["Cn1c(-c2ccccc2F)nc2sc(N3CCC[C@@H]3C(=O)NCc3ccccc3)nc2c1=O", 8.7],
  ["Cn1c(C(F)(F)c2ccccn2)nc2sc(N3CCC[C@@H]3C(=O)NCc3ccccc3)nc2c1=O", 5.6],
  ["Cn1c(N2CCOCC2)nc2sc(N3CCC[C@@H]3C(=O)NCc3ccccc3)nc2c1=O", 7.9],
  ["O=C(NCc1ccccc1)[C@H]1CCCN1c1nc2c(=O)n(N3CCOCC3)c(C(F)(F)F)nc2s1", 89],
  ["Cn1c(-c2c(F)cccc2F)nc2sc(N3CCC[C@@H]3C(=O)NCc3ccccc3)nc2c1=O", 7],
  ["CCCc1cc(=O)n2nc(N3CCCN3C(=O)Oc3ccccc3)sc2n1", 520],
  ["CCn1c(C(F)F)nc2sc(N3CCC[C@@H]3C(=O)NCc3ccco3)nc2c1=O", 120],
  ["CN(C)CCOc1nc2sc(N3CCC[C@@H]3C(=O)NCc3ccccc3)nc2c(=O)n1C", 370],
  ["CC(C)c1cc(=O)n2nc([C@H]3CCCN3C(=O)NC3(c4ccccc4)CC3)sc2n1", 90],
  ["C[C@@H](NC(=O)[C@H]1CCCN1c1nc2c(=O)[nH]c(-c3ccc(F)cc3F)nc2s1)c1ccccc1", 7.1],
  ["CC(C)c1nc2sc([C@H]3CCCN3C(=O)Oc3ccccc3)nc2c(=O)n1C", 23],
  ["CC1(Oc2nc3sc([C@H]4CCCN4C(=O)Oc4ccccc4)nc3c(=O)[nH]2)CC1", 73],
  ["Cn1c(-c2c(F)cc(F)cc2F)nc2sc(N3CCC[C@@H]3C(=O)NCc3ccccc3)nc2c1=O", 14]
]}
